Target: unphosphorylated PDGFRβ kinase (uPDGFRβ, Seq. ID No. 3) (Homo sapiens, UniProt P09619)
Sequence (P09619 557-1106): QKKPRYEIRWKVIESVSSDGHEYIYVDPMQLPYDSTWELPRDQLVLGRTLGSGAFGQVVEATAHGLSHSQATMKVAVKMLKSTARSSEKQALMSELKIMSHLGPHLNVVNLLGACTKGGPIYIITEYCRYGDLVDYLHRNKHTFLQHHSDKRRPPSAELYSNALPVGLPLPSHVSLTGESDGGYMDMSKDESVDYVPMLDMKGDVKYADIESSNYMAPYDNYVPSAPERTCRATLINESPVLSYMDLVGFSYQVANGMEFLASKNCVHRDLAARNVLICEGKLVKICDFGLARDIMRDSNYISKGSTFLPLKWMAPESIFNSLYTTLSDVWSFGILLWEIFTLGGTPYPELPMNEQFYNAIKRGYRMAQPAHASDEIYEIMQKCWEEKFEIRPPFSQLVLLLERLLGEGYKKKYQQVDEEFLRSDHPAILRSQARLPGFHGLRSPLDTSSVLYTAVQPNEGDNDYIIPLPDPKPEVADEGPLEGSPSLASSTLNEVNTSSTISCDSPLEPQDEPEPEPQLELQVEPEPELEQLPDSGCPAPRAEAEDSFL
Experiment: biochemical
Conditions: uPDGFRb, enzymatic assay, ATP 500 μM
pIC50: −log10 of the molar value.
experimental_endpoint: pIC50

CCC(=O)NC(=O)Nc1ccc(Oc2ccnc(-c3ccc(C)nc3)c2)cn1 [Example 108] | < 6.00
Cc1ncc(-c2cc(Oc3ccc(NC(=O)NC(=O)C4(C)CCOCC4)nc3)ccn2)o1 [Example 163] | < 6.00
Cc1cn(-c2cc(Oc3ccc(NC(=O)NC(=O)C(C)(C)C)nc3)ccn2)cn1 [Example 99] | 6.00 to 7.00

So what's the measured pIC50 for this one? COC(C)(C)C(=O)NC(=O)Nc1ccc(Oc2ccnc(-c3cnc(C)o3)c2)cn1 [Example 159]
< 6.00

pIC50 lookup needed for Cn1cc(-c2cc(Oc3ccc(NC(=O)NC(=O)C4(C)CCC4)nc3)ccn2)cn1 [Example 87] , thanks.
6.00 to 7.00

GET /values?readout=pIC50&item= Cc1nc(NC(=O)NC(=O)C2(C(F)(F)F)CC2)ccc1Oc1ccnc(-c2cnn(C)c2)c1 [Example 34]
6.00 to 7.00

Which pIC50 value is on record for Cn1cc(-c2cc(Oc3cnc(NC(=O)NC(=O)C(C)(C)C)cn3)ccn2)cn1 [Example 176] ?
< 6.00

Dear colleague, I am looking for the recorded pIC50 of the following molecule: Cc1cn(-c2cc(Oc3ccc(NC(=O)NC(=O)C4(C)CC4)nc3C)ccn2)cn1 [Example 135]
< 6.00

====

# IC50 per record follows
Target: unphosphorylated c-KIT kinase (uKIT, Seq. ID no. 2) (Homo sapiens, UniProt P10721)
Sequence (P10721 with tags, fused parts or gaps): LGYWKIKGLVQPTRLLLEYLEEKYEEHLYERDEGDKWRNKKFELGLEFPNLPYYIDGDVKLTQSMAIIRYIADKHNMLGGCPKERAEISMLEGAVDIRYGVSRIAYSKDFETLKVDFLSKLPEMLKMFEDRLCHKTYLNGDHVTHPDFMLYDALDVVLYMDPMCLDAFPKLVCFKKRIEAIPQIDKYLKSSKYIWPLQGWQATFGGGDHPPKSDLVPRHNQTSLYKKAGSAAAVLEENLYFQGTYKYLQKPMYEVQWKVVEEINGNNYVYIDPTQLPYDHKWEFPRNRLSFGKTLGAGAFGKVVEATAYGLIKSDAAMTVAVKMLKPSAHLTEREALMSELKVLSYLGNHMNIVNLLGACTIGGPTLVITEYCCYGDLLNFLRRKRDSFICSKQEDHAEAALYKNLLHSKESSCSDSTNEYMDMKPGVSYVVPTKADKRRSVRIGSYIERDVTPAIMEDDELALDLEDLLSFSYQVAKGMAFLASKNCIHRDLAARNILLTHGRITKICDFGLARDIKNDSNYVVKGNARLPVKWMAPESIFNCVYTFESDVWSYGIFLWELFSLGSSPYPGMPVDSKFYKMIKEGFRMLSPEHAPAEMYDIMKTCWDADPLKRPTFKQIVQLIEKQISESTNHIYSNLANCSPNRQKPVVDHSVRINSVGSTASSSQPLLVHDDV
Assay: biochemical
Conditions: uKIT, enzymatic assay, ATP 2000 μM

Solved entries (count: 7):
COC(C)(C)C(=O)NC(=O)Nc1ccc(Oc2ccnc(-c3cn(C)cn3)c2)cn1 | > 1000 nM
COC(C)(C)C(=O)NC(=O)Nc1cc(C)c(Oc2ccnc(-n3cnc(C)c3)c2)cn1 | > 1000 nM
CC(C)C(=O)NC(=O)Nc1ccc(Oc2ccnc(-c3ccc(C4CCN(C)CC4)cc3)c2)cn1 | 100 to 1000 nM
Cn1cc(-c2cc(Oc3ccc(NC(=O)NC(=O)C45CC6CC(CC(C6)C4)C5)nc3)ccn2)cn1 | 10 to 100 nM
Cc1ncc(-c2cc(Oc3ccc(NC(=O)NC(=O)C(C)(C)C)nc3C)ccn2)s1 | > 1000 nM
Cn1cc(-c2cc(Oc3cnc(NC(=O)NC(=O)C(C)(C)C)cn3)ccn2)cn1 | > 1000 nM
Cn1cc(-c2cc(Oc3ccc(NC(=O)NC(=O)C4CC5CCC4C5)nc3)ccn2)cn1 (centres unmarked) | < 10 nM

Proceed to the following item.
Record request: IC50 value, item Cn1cc(-c2cc(Oc3ccc(NC(=O)NC(=O)C(C)(C)C#N)nc3)ccn2)cn1
> 1000 nM

====

Biological target: unphosphorylated c-KIT kinase (uKIT, Seq. ID no. 2) (Homo sapiens, UniProt P10721)
Experiment: biochemical
Details: uKIT, enzymatic assay, ATP 2000 μM
# IC50 listing for each entry below

Here is how some compounds turned out for IC50.
Cn1cc(-c2cc(Oc3ccc(NC(=O)NC(=O)C4(C)CC4)nc3)ccn2)cn1 [Example 52] | 0.1 to 1 µM
Cc1ncc(-c2cc(Oc3ccc(NC(=O)NC(=O)C4(C)CCOCC4)nc3)ccn2)s1 [Example 158] | > 1 µM

Missing value: IC50, unphosphorylated c-KIT kinase (uKIT, Seq. ID no. 2) (Homo sapiens, UniProt P10721), entry Cn1cc(-c2cc(Oc3ccc(NC(=O)NC(=O)C4CCCC4)nc3)ccn2)cn1 [Example 65] . Fill in?
< 0.01 µM

Value wanted: IC50 (unphosphorylated c-KIT kinase (uKIT, Seq. ID no. 2) (Homo sapiens, UniProt P10721)) of entry CC(C)(C)C(=O)NC(=O)Nc1ccc(Oc2ccnc(-c3cnco3)c2)cn1 [Example 93]
> 1 µM

Quick check: IC50 on unphosphorylated c-KIT kinase (uKIT, Seq. ID no. 2) (Homo sapiens, UniProt P10721), item CCC(=O)NC(=O)Nc1ccc(Oc2ccnc(-c3ccc(C)nc3)c2)cn1 [Example 108] ?
> 1 µM

Which IC50 is reported with unphosphorylated c-KIT kinase (uKIT, Seq. ID no. 2) (Homo sapiens, UniProt P10721) for this entry: COC(C)(C)C(=O)NC(=O)Nc1ccc(Oc2ccnc(-c3ccnc(C)c3)c2)cn1 [Example 160] ?
> 1 µM
